Molecular target: T1, AS587 VHH (camel-derived)
T1 construct: One of the 10 different camel-derived nanobodies; not shown: His tag (VHH-His)
T1 sequence (VHH, as listed by the source): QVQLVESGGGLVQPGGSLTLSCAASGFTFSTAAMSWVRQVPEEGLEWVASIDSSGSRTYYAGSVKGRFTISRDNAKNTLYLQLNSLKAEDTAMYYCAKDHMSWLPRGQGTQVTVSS
Test: indirect ELISA, VHH coated
PROPERTY MEASURED: binding result

BINDER	RESULT
R166.D1 (antibody, V domains shown, Rabbit monoclonal; also called clone R166.D1) VH: QSVEESGGRLVKPDESLTLTCTVSGFSLSNYDMIWVRQAPGKGLEWIGVIYPTGTTYYANWVKGRFTISKTSTTVGLLITSPTTEDTATYFCARKPILYVDSSGWYIDLWGQGTLVTVSS VL: AYDMTQTPSSVSAAVGGTVSIKCQASENINNYLSWYQQKPGQPPKLLIYQASRLASAVPSRFKGSGSGTQFTLTIDDLECADAATYYCQQGHSVSNDVGNVFGGGTEVVVKG	binds
R166.G3 (antibody, V domains shown, Rabbit monoclonal; also called clone R166.G3) VH: QSVEESGGRLVTPGTPLTLTCTVSGIDLSRYAMGWVRQAPGKGLEYIGIIGYGGNTNYANWAKGRFTISKTSSTTVDLKMTSPTTEDTATYFCARDNKSGGNNGYPYYGLDLWGPGTLVTVSS VL: AYDMTQTPASVEVPVGGTVTINCQASQSISSHLAWYQQKRGQPPKVLIYYASTLASGVSSRFKGSGSGTEYTLTISGVECADAATYFCHQSYSGSDVDNTFGGGTEVVVRG	binds
R166.G10 (antibody, V domains shown, Rabbit monoclonal; also called clone R166.G10) VH: QSVEESGGRLVTPGTPLTLTCTVSGFSLSSSAVSWVRQAPGKGLEYIGIIGSGGSTYYASWVNGRFTISKTSTTVDLKMTSLTAADTATYFCARYGGNSGGYDSFNLWGQGTLVTVSS VL: DVVMTQTPASVSEPVGGTVTIKCQASQSIYSHLSWYQQKPGQPPKLLIHGASTLASGASSRFKASGSGTEFTLTISDLECADAATYYCQCTAGTSIYGNAFGGGTEVVVRG	binds
